experiment: Study KAR5585-101 Part 1 (SAD): plasma pharmacokinetics after a single oral dose of KAR5585, fasting and fed (incl. dose proportionality and food effect); settings: human, plasma, po, 400 mg, AUC0-∞, 400 mg KAR5585 single oral, fasted, Cohort 3A; Geo. Mean
Measure: AUC(0-inf) (ng·h/mL)
Dear colleague, please return just the value in ng·h/mL, with no unit written.

Fill in: AUC(0-inf) of CCOC(=O)[C@@H]1CC2(CCN(c3cc(O[C@H](c4ccc(Cl)cc4-c4ccccc4)C(F)(F)F)nc(N)n3)CC2)CN1 is ___
288

====

experiment: Study KAR5585-101 Part 1 (SAD): plasma pharmacokinetics after a single oral dose of KAR5585, fasting and fed (incl. dose proportionality and food effect); conditions: human, plasma, po, 100 mg, t1 (t½, apparent terminal half-life), 100 mg KAR5585 single oral, fasted, Cohort 1; Mean
Measure: half-life (h)
Dear colleague, please return just the value in h, with no unit written.

Fill in: half-life of CCOC(=O)[C@@H]1CC2(CCN(c3cc(O[C@H](c4ccc(Cl)cc4-c4ccccc4)C(F)(F)F)nc(N)n3)CC2)CN1 [KAR5585] is ___
1.89

====

assay: Study KAR5585-101 Part 1 (SAD): plasma pharmacokinetics after a single oral dose of KAR5585, fasting and fed (incl. dose proportionality and food effect); conditions: human, plasma, po, 400 mg, Cmax, KAR5417 after 400 mg KAR5585 single oral, fasted, Cohort 3A; Mean
Measure: Cmax (ng/mL)
Dear colleague, please return just the value in ng/mL, with no unit written.

Fill in: Cmax of Nc1nc(O[C@H](c2ccc(Cl)cc2-c2ccccc2)C(F)(F)F)cc(N2CCC3(CC2)CN[C@H](C(=O)O)C3)n1 [KAR5417] is ___
485

====

experiment: Study KAR5585-101 Part 1 (SAD): plasma pharmacokinetics after a single oral dose of KAR5585, fasting and fed (incl. dose proportionality and food effect); conditions: human, plasma, po, 400 mg, AUC0-tau, KAR5417 after 400 mg KAR5585 single oral, fasted, Cohort 3A; Geo. Mean
Measure: AUC

Fill in: AUC of Nc1nc(O[C@H](c2ccc(Cl)cc2-c2ccccc2)C(F)(F)F)cc(N2CCC3(CC2)CN[C@H](C(=O)O)C3)n1 is ___
3120 ng·h/mL

====

experiment: Study KAR5585-101 Part 1 (SAD): plasma pharmacokinetics after a single oral dose of KAR5585, fasting and fed (incl. dose proportionality and food effect); conditions: human, in vivo, po, 200 mg
Measure: half-life (h)
Dear colleague, please return just the value in h, with no unit written.

Fill in: half-life of CCOC(=O)[C@@H]1CC2(CCN(c3cc(O[C@H](c4ccc(Cl)cc4-c4ccccc4)C(F)(F)F)nc(N)n3)CC2)CN1 [KAR5585] is ___
3.17

====

test: Study KAR5585-101 Part 1 (SAD): plasma pharmacokinetics after a single oral dose of KAR5585, fasting and fed (incl. dose proportionality and food effect); conditions: human, plasma, po, 700 mg, t1 (t½, apparent terminal half-life), 700 mg KAR5585 single oral, fasted, Cohort 4; Geo. Mean
Measure: half-life (h)
Dear colleague, please return just the value in h, with no unit written.

Fill in: half-life of CCOC(=O)[C@@H]1CC2(CCN(c3cc(O[C@H](c4ccc(Cl)cc4-c4ccccc4)C(F)(F)F)nc(N)n3)CC2)CN1 [KAR5585] is ___
3.42

====

experiment: Study KAR5585-101 Part 1 (SAD): plasma pharmacokinetics after a single oral dose of KAR5585, fasting and fed (incl. dose proportionality and food effect); conditions: human, plasma, po, 400 mg, AUC0-24, KAR5417 after 400 mg KAR5585 single oral, fasted, Cohort 3A; Geo. Mean
Measure: AUC(0-t) (ng·h/mL)
Dear colleague, please return just the value in ng·h/mL, with no unit written.

Fill in: AUC(0-t) of Nc1nc(O[C@H](c2ccc(Cl)cc2-c2ccccc2)C(F)(F)F)cc(N2CCC3(CC2)CN[C@H](C(=O)O)C3)n1 [KAR5417] is ___
2970

====

assay: clinical; conditions: human, plasma, oral, 400 mg/dose
Measure: concentration at 12 h (ng/mL)
Dear colleague, please return just the value in ng/mL, with no unit written.

Fill in: concentration at 12 h of CCOC(=O)[C@@H]1CC2(CCN(c3cc(O[C@H](c4ccc(Cl)cc4-c4ccccc4)C(F)(F)F)nc(N)n3)CC2)CN1 [KAR5585] is ___
11.4

====

assay: Study KAR5585-101 Part 1 (SAD): plasma pharmacokinetics after a single oral dose of KAR5585, fasting and fed (incl. dose proportionality and food effect); details: human, plasma, po, 200 mg, C12, KAR5417 after 200 mg KAR5585 single oral, fasted, Cohort 2; Geo. Mean
Measure: concentration at 12 h (ng/mL)
Dear colleague, please return just the value in ng/mL, with no unit written.

Fill in: concentration at 12 h of Nc1nc(O[C@H](c2ccc(Cl)cc2-c2ccccc2)C(F)(F)F)cc(N2CCC3(CC2)CN[C@H](C(=O)O)C3)n1 is ___
27.3

====

Test: Part 1 (SAD): urine pharmacokinetics (amount excreted, renal clearance) after a single oral dose of KAR5585
Type: in vivo, human
Settings: human, urine and plasma, po, 2000 mg, KAR5417; 2000 mg KAR5585 single oral dose; mean; read-out: CLR (converted)
Experimental: Renal clearance of KAR5417 was calculated from the area under the plasma time concentration curve (AUC0-96) for KAR5417 and the amount of KAR5417 recovered in urine (Table 21).
Measure: CL renal (mL/min)
Dear colleague, please return just the value in mL/min, with no unit written.

Fill in: CL renal of Nc1nc(O[C@H](c2ccc(Cl)cc2-c2ccccc2)C(F)(F)F)cc(N2CCC3(CC2)CN[C@H](C(=O)O)C3)n1 is ___
3.43

====

assay: Study KAR5585-101 Part 1 (SAD): plasma pharmacokinetics after a single oral dose of KAR5585, fasting and fed (incl. dose proportionality and food effect); conditions: human, plasma, po, 200 mg, Cmax, 200 mg KAR5585 single oral, fasted, Cohort 2; Mean
Measure: Cmax

Fill in: Cmax of CCOC(=O)[C@@H]1CC2(CCN(c3cc(O[C@H](c4ccc(Cl)cc4-c4ccccc4)C(F)(F)F)nc(N)n3)CC2)CN1 [KAR5585] is ___
19.2 ng/mL

====

test: Study KAR5585-101 Part 1 (SAD): plasma pharmacokinetics after a single oral dose of KAR5585, fasting and fed (incl. dose proportionality and food effect); details: human, plasma, po, 200 mg, t1/2, KAR5417 after 200 mg KAR5585 single oral, fasted, Cohort 2; Mean
Measure: half-life (h)
Dear colleague, please return just the value in h, with no unit written.

Fill in: half-life of Nc1nc(O[C@H](c2ccc(Cl)cc2-c2ccccc2)C(F)(F)F)cc(N2CCC3(CC2)CN[C@H](C(=O)O)C3)n1 [KAR5417] is ___
5.4

====

assay: Study KAR5585-101 Part 1 (SAD): plasma pharmacokinetics after a single oral dose of KAR5585, fasting and fed (incl. dose proportionality and food effect); details: human, plasma, po, 400 mg, Cmax, 400 mg KAR5585 single oral, fasted, Cohort 3A; Mean
Measure: Cmax (ng/mL)
Dear colleague, please return just the value in ng/mL, with no unit written.

Fill in: Cmax of CCOC(=O)[C@@H]1CC2(CCN(c3cc(O[C@H](c4ccc(Cl)cc4-c4ccccc4)C(F)(F)F)nc(N)n3)CC2)CN1 is ___
52.8

====

assay: Study KAR5585-101 Part 1 (SAD): plasma pharmacokinetics after a single oral dose of KAR5585, fasting and fed (incl. dose proportionality and food effect); details: human, plasma, po, 400 mg, AUC0-24, KAR5417 after 400 mg KAR5585 single oral, fasted, Cohort 3A; Mean
Measure: AUC(0-t) (ng·h/mL)
Dear colleague, please return just the value in ng·h/mL, with no unit written.

Fill in: AUC(0-t) of Nc1nc(O[C@H](c2ccc(Cl)cc2-c2ccccc2)C(F)(F)F)cc(N2CCC3(CC2)CN[C@H](C(=O)O)C3)n1 is ___
3250

====

test: Study KAR5585-101 Part 1 (SAD): plasma pharmacokinetics after a single oral dose of KAR5585, fasting and fed (incl. dose proportionality and food effect); conditions: human, plasma, po, 1200 mg, AUC0-24, KAR5417 after 1200 mg KAR5585 single oral, fasted, Cohort 5; Mean
Measure: AUC(0-t) (ng·h/mL)
Dear colleague, please return just the value in ng·h/mL, with no unit written.

Fill in: AUC(0-t) of Nc1nc(O[C@H](c2ccc(Cl)cc2-c2ccccc2)C(F)(F)F)cc(N2CCC3(CC2)CN[C@H](C(=O)O)C3)n1 is ___
6790

====

assay: Study KAR5585-101 Part 1 (SAD): plasma pharmacokinetics after a single oral dose of KAR5585, fasting and fed (incl. dose proportionality and food effect); conditions: human, plasma, po, 200 mg, AUC0-tau, 200 mg KAR5585 single oral, fasted, Cohort 2; Geo. Mean
Measure: AUC (ng·h/mL)
Dear colleague, please return just the value in ng·h/mL, with no unit written.

Fill in: AUC of CCOC(=O)[C@@H]1CC2(CCN(c3cc(O[C@H](c4ccc(Cl)cc4-c4ccccc4)C(F)(F)F)nc(N)n3)CC2)CN1 is ___
52

src = patent US20240041877A1
